Entries and their self-splicing fitness (ln)
Test: self-splicing fitness, log relative to wild type (ln ratio); higher = more splicing; Tetrahymena group I intron in knt gene, E. coli kanamycin selection, DiMSum; sequences stand for … in CUCUCU…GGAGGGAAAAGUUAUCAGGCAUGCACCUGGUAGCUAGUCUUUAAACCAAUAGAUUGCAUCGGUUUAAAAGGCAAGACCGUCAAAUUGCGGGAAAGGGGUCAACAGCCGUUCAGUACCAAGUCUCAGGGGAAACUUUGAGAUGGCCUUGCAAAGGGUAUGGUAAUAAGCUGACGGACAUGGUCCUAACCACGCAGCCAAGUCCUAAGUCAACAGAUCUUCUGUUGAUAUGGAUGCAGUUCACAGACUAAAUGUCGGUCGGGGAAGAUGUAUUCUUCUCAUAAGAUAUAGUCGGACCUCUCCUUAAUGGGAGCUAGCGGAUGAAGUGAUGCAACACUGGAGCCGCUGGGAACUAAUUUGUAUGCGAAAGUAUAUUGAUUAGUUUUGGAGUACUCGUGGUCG;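 further: selection with 25 µg/mL kanamycin versus none on LB agar overnight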
Details: 37 °C
A bare number is all that is needed in reply.

ACGAAGCAAUAUUACGUCAU | -2.81

Entry under review: UAGAAGCAAUAUUACGACUC . Reported self-splicing fitness (ln)?
-0.013

Entry under review: GCAUAGCAAUAUUACGGAGG . Reported self-splicing fitness (ln)?
-3.37

Entry under review: GUUGAGCAAUAUUACGCUAA . Reported self-splicing fitness (ln)?
-2.26

Entry under review: UCUAAGCAAUAUUACGCAUA . Reported self-splicing fitness (ln)?
-2.33

Entry under review: UCGCAGCAAUAUUACGGGAG . Reported self-splicing fitness (ln)?
-3.15

----------
Experiment: self-splicing fitness, log relative to wild type (ln ratio); higher = more splicing; Tetrahymena group I intron in knt gene, E. coli kanamycin selection, DiMSum; sequences stand for … in CUCUCU…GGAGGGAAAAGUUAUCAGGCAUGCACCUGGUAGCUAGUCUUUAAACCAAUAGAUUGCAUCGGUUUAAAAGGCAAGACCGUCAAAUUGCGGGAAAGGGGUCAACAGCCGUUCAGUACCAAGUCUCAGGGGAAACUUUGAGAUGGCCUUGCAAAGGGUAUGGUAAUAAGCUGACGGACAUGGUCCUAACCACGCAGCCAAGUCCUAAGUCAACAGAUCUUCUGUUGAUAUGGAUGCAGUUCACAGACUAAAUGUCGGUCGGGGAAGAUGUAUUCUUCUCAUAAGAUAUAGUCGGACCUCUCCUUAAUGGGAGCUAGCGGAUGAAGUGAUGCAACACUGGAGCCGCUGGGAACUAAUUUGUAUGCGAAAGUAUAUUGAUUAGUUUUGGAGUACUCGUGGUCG
Conditions: 37 °C
OBSERVATION_TYPE: self-splicing fitness (ln)
A bare number is all that is needed in reply.

GUCCAGCAAUAUUACGGGGG | -1.55

Entry under review: CCAUAGCAAUAUUACGAUCC . Reported self-splicing fitness (ln)?
-1.43

Entry under review: UUUAAGCAAUAUUACGAAAA . Reported self-splicing fitness (ln)?
-1.33

Entry under review: CGAGAGCAAUAUUACGAUGA . Reported self-splicing fitness (ln)?
-1.27

Entry under review: CGCCAGCAAUAUUACGGGGU . Reported self-splicing fitness (ln)?
-2.36

Entry under review: UAACAGCAAUAUUACGACCA . Reported self-splicing fitness (ln)?
0.224

Entry under review: AGUCAGCAAUAUUACGACGC . Reported self-splicing fitness (ln)?
0.499

Entry under review: CUUGAGCAAUAUUACGACGC . Reported self-splicing fitness (ln)?
-1.9

Entry under review: UUCUAGCAAUAUUACGGAGU . Reported self-splicing fitness (ln)?
-2.56

Entry under review: UUGUAGCAAUAUUACGUCUC . Reported self-splicing fitness (ln)?
-1.75

Entry under review: AAUGAGCAAUAUUACGGGUU . Reported self-splicing fitness (ln)?
-2.13

Entry under review: GAAGAGCAAUAUUACGCAUG . Reported self-splicing fitness (ln)?
-2.36

Entry under review: CAAUAGCAAUAUUACGGUAC . Reported self-splicing fitness (ln)?
-2.08

Entry under review: CUUUAGCAAUAUUACGUUGA . Reported self-splicing fitness (ln)?
-3.01

Entry under review: CUGUAGCAAUAUUACGGGGC . Reported self-splicing fitness (ln)?
-2.14

Entry under review: CUGUAGCAAUAUUACGUUUU . Reported self-splicing fitness (ln)?
-2.23

----------
Experiment: self-splicing fitness, log relative to wild type (ln ratio); higher = more splicing; Tetrahymena group I intron in knt gene, E. coli kanamycin selection, DiMSum; sequences stand for … in CUCUCU…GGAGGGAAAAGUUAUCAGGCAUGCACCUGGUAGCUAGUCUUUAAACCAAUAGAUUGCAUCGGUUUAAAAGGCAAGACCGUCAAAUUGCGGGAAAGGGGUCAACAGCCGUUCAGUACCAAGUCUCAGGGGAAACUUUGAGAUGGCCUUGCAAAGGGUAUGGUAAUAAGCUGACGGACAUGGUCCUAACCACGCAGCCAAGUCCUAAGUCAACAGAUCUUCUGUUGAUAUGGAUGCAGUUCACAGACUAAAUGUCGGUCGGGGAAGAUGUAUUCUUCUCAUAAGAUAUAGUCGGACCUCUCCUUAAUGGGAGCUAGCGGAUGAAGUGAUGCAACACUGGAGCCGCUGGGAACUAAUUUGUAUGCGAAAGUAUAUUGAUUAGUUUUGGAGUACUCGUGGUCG
Settings: 37 °C
OBSERVATION_TYPE: self-splicing fitness (ln)
A bare number is all that is needed in reply.

Here are 5 sequences together with their reported answers.
AGUUAGCAAUAUUACGGGUA | -0.0817
GAUAAGCAAUAUUACGUACA | -0.262
UACUAGCAAUAUUACGACCC | -0.364
AGUCAGCAAUAUUACGAGCG | -0.556
UAACAGCAAUAUUACGAUUC | -1.01

Entry under review: GAAGAGCAAUAUUACGGUCA . Reported self-splicing fitness (ln)?
-2.05

Entry under review: CCGUAGCAAUAUUACGGGCG . Reported self-splicing fitness (ln)?
-1.34

Entry under review: GUUCAGCAAUAUUACGUCGG . Reported self-splicing fitness (ln)?
-2.39

Entry under review: UAGGAGCAAUAUUACGGGGG . Reported self-splicing fitness (ln)?
-2.74

Entry under review: UAGAAGCAAUAUUACGGGAC . Reported self-splicing fitness (ln)?
-3.21

Entry under review: CUAUAGCAAUAUUACGAUUA . Reported self-splicing fitness (ln)?
-0.967

Entry under review: GACAAGCAAUAUUACGAGGU . Reported self-splicing fitness (ln)?
-2.92

Entry under review: AGCAAGCAAUAUUACGCCUA . Reported self-splicing fitness (ln)?
-0.537

Entry under review: AGAAAGCAAUAUUACGGAGG . Reported self-splicing fitness (ln)?
-2.72

Entry under review: ACGUAGCAAUAUUACGCUGU . Reported self-splicing fitness (ln)?
-2.34

Entry under review: CGAUAGCAAUAUUACGGCUC . Reported self-splicing fitness (ln)?
-1.15

Entry under review: UAUCAGCAAUAUUACGGCUU . Reported self-splicing fitness (ln)?
-0.106

Entry under review: GAAGAGCAAUAUUACGAAUC . Reported self-splicing fitness (ln)?
-1.91

Entry under review: AACGAGCAAUAUUACGAAAU . Reported self-splicing fitness (ln)?
-2.26

Entry under review: AAACAGCAAUAUUACGUAUA . Reported self-splicing fitness (ln)?
-1.27

Entry under review: UCCCAGCAAUAUUACGAAUA . Reported self-splicing fitness (ln)?
-1.42

Entry under review: CGACAGCAAUAUUACGUGGU . Reported self-splicing fitness (ln)?
-3.34

Entry under review: GAUAAGCAAUAUUACGGGGC . Reported self-splicing fitness (ln)?
-1.62

Entry under review: GUUAAGCAAUAUUACGGAGU . Reported self-splicing fitness (ln)?
-0.486

Entry under review: GUUAAGCAAUAUUACGUGCA . Reported self-splicing fitness (ln)?
-0.144

Entry under review: GCCCAGCAAUAUUACGGUCA . Reported self-splicing fitness (ln)?
-0.326

Entry under review: ACGUAGCAAUAUUACGCGUU . Reported self-splicing fitness (ln)?
-2.49

----------
Assay: self-splicing fitness, log relative to wild type (ln ratio); higher = more splicing; Tetrahymena group I intron in knt gene, E. coli kanamycin selection, DiMSum; sequences stand for … in CUCUCU…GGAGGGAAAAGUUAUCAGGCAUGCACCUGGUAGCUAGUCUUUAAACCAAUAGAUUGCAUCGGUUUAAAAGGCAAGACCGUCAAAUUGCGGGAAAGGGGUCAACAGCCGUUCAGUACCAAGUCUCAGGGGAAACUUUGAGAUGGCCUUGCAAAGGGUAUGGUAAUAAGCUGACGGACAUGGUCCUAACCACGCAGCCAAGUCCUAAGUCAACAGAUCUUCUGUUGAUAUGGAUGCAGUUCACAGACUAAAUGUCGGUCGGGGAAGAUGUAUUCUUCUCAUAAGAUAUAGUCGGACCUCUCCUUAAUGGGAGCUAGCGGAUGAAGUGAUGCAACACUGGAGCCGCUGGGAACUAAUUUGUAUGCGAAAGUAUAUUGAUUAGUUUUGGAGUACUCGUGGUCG
Settings: 30 °C
OBSERVATION_TYPE: self-splicing fitness (ln)
A bare number is all that is needed in reply.

Entry under review: UUGUAGCAAUAUUACGGUUU . Reported self-splicing fitness (ln)?
-3.53

Entry under review: AUCGAGCAAUAUUACGUCUC . Reported self-splicing fitness (ln)?
-3.13

Entry under review: CGGAAGCAAUAUUACGUUUC . Reported self-splicing fitness (ln)?
-4.04

The values you see were collected from the supplement of paper PMC7877785.
